B1: Pre-mRNA-processing factor 40 homolog B, residues 274 to 332; numbered along this chain, Q6NWY9 (parent)
chain: SNREKAKQAFKELLRDKAVPSNASWEQAMKMVVTDPRYSALPKLSEKKQAFNAYKAQRE

Variants of: B1
Assay: abundance fitness (aPCA) (normalised: wild type 0, dead -1); higher = more abundant; growth selection in yeast, the domain comes from the species named
Details: Homo sapiens
Assign classes using reported abundance fitness values and the ranges class 1: < -0.4; class 2: ≥ -0.4 and < -0.1; class 3: ≥ -0.1, please.

Examples from the recorded data:
Where would K17I land among the classes by reported abundance fitness?
class 1

# classify by abundance fitness band: S1I
class 3

Further cases:
Which of the defined bands does the recorded abundance fitness of E4H sit within?
class 3

Where would K30T land among the classes by reported abundance fitness?
class 2

Which abundance fitness band matches A40K ?
class 2

For the record P20F , report the class its abundance fitness corresponds to.
class 1
